# System: OVCAR-3 ovarian
# assay.remarks: NCI tumour cell line growth inhibition, 48 h
quantity: TGI

The following molecules have reported results that may help.
CCOC(=O)N/N=C(\CC)OCC: > 100 µM
O=c1[nH]nc(Cc2ccccc2)n1/N=C/c1ccc([N+](=O)[O-])cc1: > 100 µM
O=C1C(=O)N(c2ccc(Cl)cc2)C(=O)C(=Nc2cccc3c(=O)[nH][nH]c(=O)c23)C1c1nc2ccccc2o1 (stereo unspecified): > 100 µM
O=c1c(-c2ccccc2)c(SCCN2CCOCC2)n(-c2ccccc2)c(=S)n1-c1ccccc1: > 100 µM
CCC1(c2ccc(N)cc2)CCC(=O)NC1=O (stereo unspecified): > 3970 µM

# molecule NC(=O)Cn1c(=O)oc2cc(C(=O)CN3CCOCC3)ccc21 ; its TGI = > 100 µM

All figures here come from PubChem BioAssay (NCI).
